Where these numbers come from: PubChem BioAssay (Tox21)

Molecular target: Estrogen receptor (Homo sapiens) (UniProt P03372)
Sequence (P03372 whole entry, looked up): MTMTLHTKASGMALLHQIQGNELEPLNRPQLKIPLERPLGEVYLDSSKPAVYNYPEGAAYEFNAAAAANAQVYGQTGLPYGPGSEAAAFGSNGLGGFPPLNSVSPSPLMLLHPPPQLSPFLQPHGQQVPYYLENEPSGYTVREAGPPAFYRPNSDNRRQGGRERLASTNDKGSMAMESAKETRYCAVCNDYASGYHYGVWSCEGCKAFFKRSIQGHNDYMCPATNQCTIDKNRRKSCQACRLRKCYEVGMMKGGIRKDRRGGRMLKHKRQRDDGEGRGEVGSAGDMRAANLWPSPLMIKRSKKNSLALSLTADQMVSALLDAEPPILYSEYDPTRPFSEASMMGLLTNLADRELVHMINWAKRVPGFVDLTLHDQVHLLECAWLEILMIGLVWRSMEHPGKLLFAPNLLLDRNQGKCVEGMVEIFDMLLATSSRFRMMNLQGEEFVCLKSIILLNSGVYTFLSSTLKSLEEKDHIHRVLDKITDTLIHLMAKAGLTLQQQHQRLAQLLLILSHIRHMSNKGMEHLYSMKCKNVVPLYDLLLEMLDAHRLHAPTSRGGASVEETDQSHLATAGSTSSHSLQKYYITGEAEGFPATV
Test: qHTS assay to identify small molecule agonists of the estrogen receptor alpha (ER-alpha) signaling pathway (AID 743075);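 note: HEK293 GripTite cells with ER-alpha and UAS-driven beta-lactamase reporter; % is set by controls: 0 for no effect and ±100 for the full control effect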
Conditions: HEK293 ER-alpha-UAS-bla, beta-lactamase FRET ratio, 18 h; series mostly up to 70.1 µM
Records with an inconclusive call do not appear. The source made the active and inactive calls. Calls come from the whole dose curve.
result-type: outcome

>>> df
                                   compound  obs_value
0  CCC1(c2ccccc2)C(=O)N=C(O)NC1=O (stereo not given)   inactive
1                    CCOP(=O)(N=C1SCCS1)OCC   inactive
2                           CCCCP(CCCC)CCCC   inactive
3      Cc1coc2c1CCC(C)C2 (stereo not given)   inactive
4                              Cc1ncsc1CCCl   inactive
5         O=C(O)C(Br)CBr (stereo not given)   inactive

Requested read-out outcome, target or system Estrogen receptor (Homo sapiens) (UniProt P03372), entry O=[N+]([O-])c1cc(Cl)c(Cl)c(Cl)c1 inactive

Requested read-out outcome, target or system Estrogen receptor (Homo sapiens) (UniProt P03372), entry CCOC(=O)/C=C(C)/C=C/C[C@@H](C)CCCC(C)C inactive

Requested read-out outcome, target or system Estrogen receptor (Homo sapiens) (UniProt P03372), entry CNNC inactive

Requested read-out outcome, target or system Estrogen receptor (Homo sapiens) (UniProt P03372), entry O=CNC(N1CCN(C(NC=O)C(Cl)(Cl)Cl)CC1)C(Cl)(Cl)Cl (stereo not given) inactive

Requested read-out outcome, target or system Estrogen receptor (Homo sapiens) (UniProt P03372), entry ClC(Br)Br inactive

Requested read-out outcome, target or system Estrogen receptor (Homo sapiens) (UniProt P03372), entry O=c1oc2ccccc2c(O)c1C1CCCc2ccccc21 (stereo not given) inactive

Requested read-out outcome, target or system Estrogen receptor (Homo sapiens) (UniProt P03372), entry CCC(C)n1c(=O)[nH]c(C)c(Br)c1=O (stereo not given) inactive

Requested read-out outcome, target or system Estrogen receptor (Homo sapiens) (UniProt P03372), entry O=C(O)c1cccc(Cl)c1 inactive

Requested read-out outcome, target or system Estrogen receptor (Homo sapiens) (UniProt P03372), entry C(CCOCC1CO1)COCC1CO1 (stereo not given) inactive

---

Target: Estrogen receptor (Homo sapiens) (UniProt P03372)
Experiment: qHTS assay to identify small molecule agonists of the estrogen receptor alpha (ER-alpha) signaling pathway using the BG1 cell line (AID 743079); note: % is set by controls: 0 for no effect and ±100 for the full control effect; nearly all actives have a fitted effect of over 20% in size
Details: BG1Luc4E2 cells, ERE-luciferase agonist, 22 h; at 70.3 µM (top of the series)
Records with an inconclusive call do not appear.
result-type: activation (%)
Number only, in %; omit the unit.

In [3]: df
Out[3]:
                                   compound  result_type  obs_value
0                           CCCCc1ccc(O)cc1   activation       12.6
1                c1cc2c(c(N3CCNCC3)c1)OCCO2   activation        9.1
2                                 ClC(Br)Br   activation       1.01
3           C=CC1CC=CCC1 (stereo not given)   activation         11
4  C=C(C)CN(CC)c1c([N+](=O)[O-])cc(C(F)(F)F)cc1[N+](=O)[O-]   activation       11.3
5  Fc1ccc(C2(Cn3cncn3)OC2c2ccccc2Cl)cc1 (stereo not given)   activation      -28.4
6                        C1CCC(C2CCCCC2)CC1   activation      -17.5
7                             C[N+](=O)[O-]   activation      0.916
8          CCOP(=S)(OCC)Oc1nc(Cl)n(C(C)C)n1   activation       5.59
9                         N#Cc1c(Cl)cccc1Cl   activation       -1.9

# get_value(readout='activation', item= Oc1c(Cl)cccc1Cl ) 20.4

# get_value(readout='activation', item= O=CNC(N1CCN(C(NC=O)C(Cl)(Cl)Cl)CC1)C(Cl)(Cl)Cl (stereo not given) ) -11.3

# get_value(readout='activation', item= CNCC(=O)c1ccc(O)c(O)c1 ) -0.0937

# get_value(readout='activation', item= Nc1cnn(-c2ccccc2)c(=O)c1Cl ) 6.72

# get_value(readout='activation', item= Nc1cc(Cl)ccc1O ) -2.11
